procedure_summary: amyloid nucleation score (Sup35N fusion, yeast selection) (log enrichment); library NNK2; higher = more nucleation; inactive = no reads after selection;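 note: zero at mode of non-aggregating sequences after 7 days selection at 30°C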
amyloid nucleation score vs 0.9: at or above is Y, below is N.

substance=EMYRCGWCLWMHNRLTATVR assigned_category=Y

Can EVADSRKVSSATWSISSNQR be said to have amyloid nucleation score at or above 0.9?
Y

amyloid nucleation score >= 0.9 for LTSMEARLQMKVRDGFQNGE ?
N

Check the entry QCFDFTD : does amyloid nucleation score equal or exceed 0.9?
Y

Reported amyloid nucleation score reaches at least 0.9 for SNCRQSPYNNQVI ?
N

For this substance, is measured amyloid nucleation score 0.9 or higher? NENTLNMMKVWVTGGLSTRK
Y

Is it the case that YVTPKDDSDAVWGLTLMEMS has amyloid nucleation score reaching or exceeding 0.9?
N

Can CKIRNDSSSSRLVIHILDTA be said to have amyloid nucleation score at or above 0.9?
Y
